These data points were gathered from paper PMC7160673.

Biological target: T1, Chromodomain Y-like protein 2 chromodomain
T1 construct: Chromodomain Y-like protein 2 (CDYL2), chromodomain; also called CDYL2 chromo; source: E. coli BL21, purified (glutathione resin); not shown: GST, N-terminal, kept
T1 sequence (Q8N8U2 whole entry, species assumed, looked up): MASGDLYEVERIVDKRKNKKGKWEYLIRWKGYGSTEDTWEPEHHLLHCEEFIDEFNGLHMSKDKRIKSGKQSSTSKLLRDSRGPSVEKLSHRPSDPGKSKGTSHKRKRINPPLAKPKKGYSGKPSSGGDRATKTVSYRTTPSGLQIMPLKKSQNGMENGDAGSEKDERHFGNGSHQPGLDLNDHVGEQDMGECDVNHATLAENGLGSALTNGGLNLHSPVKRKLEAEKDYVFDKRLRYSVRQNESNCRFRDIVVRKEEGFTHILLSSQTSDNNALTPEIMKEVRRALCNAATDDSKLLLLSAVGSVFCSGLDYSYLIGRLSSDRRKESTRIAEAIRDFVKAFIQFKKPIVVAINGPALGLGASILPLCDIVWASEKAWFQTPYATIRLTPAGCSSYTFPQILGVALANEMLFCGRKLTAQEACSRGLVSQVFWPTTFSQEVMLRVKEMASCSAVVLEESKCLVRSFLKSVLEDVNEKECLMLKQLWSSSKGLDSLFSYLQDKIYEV
Assay: fluorescence polarisation; protein serially diluted with 10 nM FAM peptide; 25 mM HEPES pH 7.5, 100 mM NaCl, 0.05% NP-40; anisotropy fitted by specific binding with Hill slope
Conditions: both partners purified
Where no end group is shown, it is not given here. [ ]: non-standard residue; d: D form. The star is where a group is joined. 5FAM = O=C1OC2(c3ccc(O)cc3Oc3cc(O)ccc32)c2ccc(C(=O)*)cc21; Lys(Me3) = C[N+](C)(C)CCCC[C@H](N)C(=O)O
measured_metric: Kd (nM)
Give bare numbers, in nM.

# input Let me know recorded Kd for 5FAM-WAY[Lys(Me3)]TGK (also: flanking glycines, number not given here) [FAM-WAY(Kme3)TGK peptide] , thanks.
# output 100
